- measured.target: Aβ (1-40) peptide (Homo sapiens, UniProt P05067)
- Construct: 10 μL 0.5 mg/mL Aβ (1-40) peptide in 20% HFIP
- Sequence (P05067 672-711 limits assumed): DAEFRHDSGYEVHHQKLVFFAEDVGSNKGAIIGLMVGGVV
- experiment.description: BAPA (Beta-Amyloid Peptide Aggregation, pH 6.0, filtration)
- Assay type: biochemical
- assay.setup: Aβ (1-40) 33 μM, pH 6.0, 2 to 4 hours at room temperature; replicate values; letter = synthetic lot
# true (1) = IC50 below 60 µM (exclusive); false (0) = IC50 at/above 60 µM

Use the examples below as a reference point.
molecule=Cc1ccc(Nc2ccc(CCc3ccc(Cl)c(Cl)c3)cc2)c(C(=O)O)c1 category_label="false (0)"
molecule=CCCN(CCC)c1ccc(CCCc2ccc(Nc3ccccc3C(=O)O)cc2)cc1 category_label="false (0)"
molecule=CN(C)c1ccc(N(C)c2ccc(CCc3ccc(Cl)c(Cl)c3)cc2)c(C(=O)O)c1 category_label="false (0)"

Consider `COc1cc(Nc2ccc(CCCc3ccc(Cl)c(Cl)c3)cc2)c(C(=O)O)cc1[N+](=O)[O-]` . Does its IC50 lie strictly below 60 µM?
true (1)

Consider `CCCCN(CCCC)c1ccc(Nc2ccc(CCc3ccc(Cl)c(Cl)c3)cc2)c(C(=O)O)c1` . Does its IC50 lie strictly below 60 µM?
false (0)

Consider Cl.O=C(O)c1ccccc1Nc1ccc(CCc2cccc(N3CCCCC3)c2)cc1 [Example 42, monohydrochloride] . Does its IC50 lie strictly below 60 µM?
true (1)

Consider `O=C(O)c1cc([N+](=O)[O-])ccc1Nc1ccc(CCc2ccc(Cl)c(Cl)c2)cc1` . Does its IC50 lie strictly below 60 µM?
false (0)

Consider `O=C(O)c1ccccc1Nc1ccc(CCc2cc(O)c(O)c(O)c2)cc1` . Does its IC50 lie strictly below 60 µM?
false (0)

Consider `O=C(O)c1cc(F)ccc1Nc1ccc(CCc2ccc(Cl)c(Cl)c2)cc1` . Does its IC50 lie strictly below 60 µM?
false (0)

Consider `O=C(O)c1ccc(C(F)(F)F)cc1Nc1ccc(CCc2ccc(Cl)c(Cl)c2)cc1` . Does its IC50 lie strictly below 60 µM?
true (1)

Consider `COc1cc(CCc2ccc(Nc3ccccc3C(=O)O)cc2)cc(OC)c1OC` . Does its IC50 lie strictly below 60 µM?
false (0)

Consider `Nc1ccc(Nc2ccc(CCc3ccc(Cl)c(Cl)c3)cc2)c(C(=O)O)c1` . Does its IC50 lie strictly below 60 µM?
false (0)

Consider `O=C(O)c1cc([N+](=O)[O-])ccc1Nc1ccc(CCc2ccccc2)cc1` . Does its IC50 lie strictly below 60 µM?
false (0)

Consider `O=C(O)c1ccccc1Nc1ccc(-c2cc(Cl)cc(Cl)c2)cc1` . Does its IC50 lie strictly below 60 µM?
true (1)

Consider `CCCCN(CCCC)c1ccc(CCc2ccc(Nc3ccc([N+](=O)[O-])cc3C(=O)O)cc2)cc1` . Does its IC50 lie strictly below 60 µM?
true (1)

Consider `O=C(O)c1ccccc1Nc1ccc(CCc2cc(Cl)cc(Cl)c2)cc1` . Does its IC50 lie strictly below 60 µM?
false (0)

Consider `O=C(O)c1ccccc1Nc1ccc(CCCCc2ccc(Cl)c(Cl)c2)cc1` . Does its IC50 lie strictly below 60 µM?
false (0)

Consider `O=C(O)c1ccccc1Nc1ccc(CCc2cccc(Cl)c2)cc1` . Does its IC50 lie strictly below 60 µM?
false (0)

Consider `O=C(O)c1ccccc1Nc1ccc(CCc2ccccc2O)cc1` . Does its IC50 lie strictly below 60 µM?
false (0)

Consider `O=C(O)c1cc([N+](=O)[O-])cc([N+](=O)[O-])c1Nc1ccc(CCCCc2ccc(Cl)c(Cl)c2)cc1` . Does its IC50 lie strictly below 60 µM?
false (0)

Consider `Cc1ccc(Nc2ccc(CCCc3ccc(Cl)c(Cl)c3)cc2)c(C(=O)O)c1` . Does its IC50 lie strictly below 60 µM?
true (1)

Consider `CN(C)c1ccc(Nc2ccc(CCc3ccc(Cl)c(Cl)c3)cc2)c(C(=O)O)c1` . Does its IC50 lie strictly below 60 µM?
false (0)

Consider `O=C(O)c1ccccc1Nc1ccc(CCc2ccc(F)c(C(F)(F)F)c2)cc1` . Does its IC50 lie strictly below 60 µM?
false (0)

Consider `O=C(O)c1cc([N+](=O)[O-])ccc1Nc1ccc(CCc2ccc(F)c(F)c2)cc1` . Does its IC50 lie strictly below 60 µM?
false (0)

Consider `O=C(O)c1ccccc1Nc1ccc(CCc2ccc(Nc3ccccc3C(=O)O)cc2)cc1` . Does its IC50 lie strictly below 60 µM?
true (1)

Consider `CS(=O)(=O)NC(=O)c1ccccc1Nc1ccc(CCCc2ccc(Cl)c(Cl)c2)cc1` . Does its IC50 lie strictly below 60 µM?
true (1)

---

Please respond with reported IC50 for every item in the list.
- measured.target: Aβ(1-40) (Homo sapiens, UniProt P05067)
- Construct: […]; purchased Bachem, Torrance, Calif
- experiment.description: BASST (Beta-Amyloid Self-Seeding, Thioflavin T), inhibitors of self-seeded amyloid fibril growth
- Type: biochemical
- assay.setup: 30 μM soluble Aβ(1-40), 37° C., 3 to 5 hours, thioflavin T fluorescence; replicate values; letter = synthetic lot; read-out: BASST (IC50 = μM)
- Description: An assay for inhibitors of self-seeded amyloid fibril growth Assay Buffer—50 mM sodium phosphate, pH 7.5, 100 mM NaCl, 0.02% NaN3, 1 M urea (filter and store at 4° C.) Typically, the solution should be stored until no lag phase is seen in the assay. The following are the amounts of the components of the reaction mixture that result in each of the 50 assay wells: […]
Numbers only, in µM.

molecule="Nc1ccc(Nc2ccc(CCc3ccc(Cl)c(Cl)c3)cc2)c(C(=O)O)c1 [Example 64]" experimental_readout=IC50 unit_symbol=µM recorded_number=5
molecule="O=C(O)c1ccccc1Nc1ccc(CCc2ccc(Nc3ccccc3C(=O)O)cc2)cc1 [Example 136]" experimental_readout=IC50 unit_symbol=µM recorded_number=3
molecule="O=C(O)c1ccccc1Nc1ccc(CCCc2ccc(-n3cccc3)cc2)cc1 [Example 46]" experimental_readout=IC50 unit_symbol=µM recorded_number=6

Please give IC50, item by item, for the list that follows.
1. O=C(O)c1cc([N+](=O)[O-])ccc1Nc1ccc(CCc2ccc(F)c(F)c2)cc1 [Example 67]
2. O=C(O)c1ccc(Nc2ccc(CCc3ccc(Cl)c(Cl)c3)cc2)cc1 [Example 132]
3. O=C(O)c1ccccc1Nc1ccc(CCCc2cccc(N3CCCCC3)c2)cc1 [Example 54]
4. O=C(O)c1ccccc1Nc1ccc(CCCc2ccc([N+](=O)[O-])cc2)cc1 [Example 20]
5. CCCCN(CCCC)c1cccc(CCc2ccc(Nc3ccccc3C(=O)O)cc2)c1.Cl [Example 38, monohydrochloride]
6. O=C(O)c1ccccc1Nc1ccc(CCCc2ccc(N3CCCC3)cc2)cc1 [Example 53]
7. Clc1ccc(CCc2ccc(Nc3ccccc3-c3nnn[nH]3)cc2)cc1Cl [Example 68]
8. CC(=O)Nc1ccc(CCCc2ccc(Nc3ccccc3C(=O)O)cc2)cc1 [Example 39]

1. 4
2. 10
3. 0.4
4. 6
5. 3
6. 0.3
7. 1
8. 20

---

- measured.target: Aβ (1-40) peptide (Homo sapiens, UniProt P05067)
- Construct: 10 μL 0.5 mg/mL Aβ (1-40) peptide in 20% HFIP
- experiment.description: BAPA (Beta-Amyloid Peptide Aggregation, pH 6.0, filtration)
- Assay type: biochemical
- assay.setup: Aβ (1-40) 33 μM, pH 6.0, 2 to 4 hours at room temperature; replicate values; letter = synthetic lot
Please respond with reported IC50 for every item in the list.
Answers are plain numbers, in µM.

Please give IC50, item by item, for the list that follows.
1. CCCN(CCC)c1cccc(CCc2ccc(Nc3ccccc3C(=O)O)cc2)c1.Cl [Example 37, monohydrochloride]
2. O=C(O)c1cc([N+](=O)[O-])ccc1Nc1ccc(CCc2ccc(F)c(C(F)(F)F)c2)cc1

[25, 58]

Please give IC50, item by item, for the list that follows.
1. CN(C)c1ccc(CCCc2ccc(Nc3ccccc3C(=O)O)cc2)cc1
2. CCCCN1CCc2cc(C=C3SC(=S)N(CC(=O)O)C3=O)ccc21

1: 48; 2: 30

Please give IC50, item by item, for the list that follows.
1. Clc1ccc(CCc2ccc(Nc3ccccc3-c3nnn[nH]3)cc2)cc1Cl
2. CC(=O)Nc1cccc(CCCc2ccc(Nc3ccccc3C(=O)O)cc2)c1

1: 110; 2: 53

---

- measured.target: Aβ (1-42) (Homo sapiens, UniProt P05067)
- Construct: Required Aβ (1-42) (California Peptide) was dried from its hexafluoroisopropanol (HFIP) stock solution; purchased California Peptide
- Sequence (P05067 672-713 limits assumed): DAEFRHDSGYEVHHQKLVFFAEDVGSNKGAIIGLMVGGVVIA
- experiment.description: BATYM assay (Aβ (1-42) aggregation, Thioflavin T fluorescence)
- Format: biochemical
- assay.setup: Aβ 1-42 final concentration 100 μM, 37° C., 1 day, letter = synthetic lot
experimental.readout: IC50 (µM)
One number for each entry, in µM.

See these solved cases before continuing.
smiles_text=CCCN(CCC)c1ccc(CCCc2cccc(Nc3ccccc3C(=O)O)c2)cc1 recorded_number=25.9
smiles_text=CCCNc1cccc(CCCc2ccc(Nc3ccccc3C(=O)O)cc2)c1 recorded_number=36.5

# next compound below
The observed IC50 for `O=C(O)c1cc([N+](=O)[O-])ccc1Nc1ccc(CCc2ccc(F)c(C(F)(F)F)c2)cc1` when tested with Aβ (1-42) (Homo sapiens, UniProt P05067) stands at 11.7
